# credit: PubChem BioAssay AID2060898

Test system: 616215-338-R-J1-PDC complex spheroid viability;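 further: spheroids exposed to agents for seven days before viability readout; 100% = DMSO vehicle control viability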
Experiment: Anticancer human tumor 616215-338-R-J1-PDC patient-derived colon adenocarcinoma cell line growth inhibition [RAS]
Conditions: second compound 0.03 µM; first compound 0.0316 µM; hits give low values
Overview of recorded viability, T/C for various compounds
Provide the reading as a plain figure in %.

COMPOUND	viability, T/C [%]
Nc1ccn(C2OC(CO)C(O)C2(F)F)c(=O)n1 (configuration not stated) + CCn1c(-c2cc(N3CCN(C)CC3)cnc2C(C)OC)c2c3cc(ccc31)-c1csc(n1)CC(NC(=O)C1CC1C)C(=O)N1CCCC(N1)C(=O)OCC(C)(C)C2	18.5

Form: item C=CC(=O)Nc1cc(Nc2nccc(-c3cn(C)c4ccccc34)n2)c(OC)cc1N(C)CCN(C)C + CCn1c(-c2cccnc2C(C)OC)c2c3cc(ccc31)N1CCOC(CC(NC(=O)C(C(C)C)N(C)C(=O)C3(F)CCN(C(=O)C#CC(C)(C)N(C)C)CC3)C(=O)N3CCCC(N3)C(=O)OCC(C)(C)C2)C1 ; test system 616215-338-R-J1-PDC complex spheroid viability; viability, T/C: 100
